Molecular target: endogenous Factor XIII in plasma (Plasma FXIIIa) (Homo sapiens, UniProt P00488)
Sequence (P00488 39-732 limits assumed): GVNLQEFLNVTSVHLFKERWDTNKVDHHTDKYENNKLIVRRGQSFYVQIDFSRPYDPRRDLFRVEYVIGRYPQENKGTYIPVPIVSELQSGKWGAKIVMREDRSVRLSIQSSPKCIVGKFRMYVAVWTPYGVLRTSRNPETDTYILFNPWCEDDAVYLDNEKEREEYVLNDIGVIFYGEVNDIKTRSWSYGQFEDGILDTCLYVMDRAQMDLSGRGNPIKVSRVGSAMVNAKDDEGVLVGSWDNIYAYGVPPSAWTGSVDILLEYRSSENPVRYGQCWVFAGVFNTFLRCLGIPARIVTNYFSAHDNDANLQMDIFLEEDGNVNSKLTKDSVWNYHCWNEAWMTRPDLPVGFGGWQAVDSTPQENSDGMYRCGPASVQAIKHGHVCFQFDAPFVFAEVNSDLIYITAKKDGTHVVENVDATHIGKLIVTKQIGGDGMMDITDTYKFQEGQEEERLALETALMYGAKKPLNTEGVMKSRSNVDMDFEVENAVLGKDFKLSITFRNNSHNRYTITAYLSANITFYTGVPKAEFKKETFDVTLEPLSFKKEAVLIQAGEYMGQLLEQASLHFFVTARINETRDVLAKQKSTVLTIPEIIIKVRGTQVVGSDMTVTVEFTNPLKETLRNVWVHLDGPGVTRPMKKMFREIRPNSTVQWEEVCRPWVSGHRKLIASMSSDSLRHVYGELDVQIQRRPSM
Assay: Inactivation of endogenous Factor XIII in plasma
Conditions: citrated plasma, thrombin-activated, 5 min at 37° C.
Let's look at some molecules and their measured IC50.
readoutLabel: IC50 (µM)

compound: O=S(=O)(NCCCCCCNc1nsc2nccn12)c1cccc2ccccc12
readoutLabel: IC50
valueMeasured: 8.4

compound: O=S(=O)(Cc1ccccc1)NCCCCCCNc1nsc2nccn12
readoutLabel: IC50
valueMeasured: 19

compound: O=S(=O)(NCCCCCCNc1nsc2nccn12)c1ccc(OC(F)(F)F)cc1
readoutLabel: IC50
valueMeasured: 31

compound: O=S(=O)(NCCCCCCNc1nsc2nccn12)c1ccc(F)cc1F
readoutLabel: IC50
valueMeasured: 6.1
